Target: cynomolgus monkey (cyno) TIGIT protein (cynomolgus monkey, UniProt A0A7N9I9V4 89-209)
Sequence (A0A7N9I9V4 entry or part of it): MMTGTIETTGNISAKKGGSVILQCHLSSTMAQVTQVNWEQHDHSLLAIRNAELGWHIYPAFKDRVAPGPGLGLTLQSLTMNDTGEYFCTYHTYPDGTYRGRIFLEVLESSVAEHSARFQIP
Assay: SPR, captured mAb
result_type: kon (M⁻¹ s⁻¹)
// return numeric value only (unit: M⁻¹ s⁻¹, not printed)

[[record]]
binder = "h7E7.L3H1 (antibody, V domains shown, VL: Y71F against h7E7.L1H1; FR/HVR pieces) VH: EVQLVQSGAEVKKPGASVKVSCKASGYTFTEYSIYWVRQAPGQRLEIIGRIDPKNGRTYYVDKFKNRATLTADTSASTAYMELSSLRSEDTAVYFCTRIYGFYFDFWGQGTLVTVSS VL: DIQLTQSPSFLSASVGDRVTITCKGSQNVNKYLVWYQQKPGKAPKLLIYNTDNLQSGIPSRFSGSGSGTEFTLTISSLQPEDFATYFCYQYNNGFTFGQGTKVEIK"
result_type = "kon"
value_unit = "M⁻¹ s⁻¹"
measured_result = "1.28e+06"

[[record]]
binder = "h7E7.L1H5 (antibody, V domains shown, VH: L69I (printed L691) against h7E7.L1H1; FR/HVR pieces) VH: EVQLVQSGAEVKKPGASVKVSCKASGYTFTEYSIYWVRQAPGQRLEIIGRIDPKNGRTYYVDKFKNRATITADTSASTAYMELSSLRSEDTAVYFCTRIYGFYFDFWGQGTLVTVSS VL: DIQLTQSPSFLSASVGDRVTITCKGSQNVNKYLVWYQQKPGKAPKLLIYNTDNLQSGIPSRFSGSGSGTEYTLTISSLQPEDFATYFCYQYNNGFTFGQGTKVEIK"
result_type = "kon"
value_unit = "M⁻¹ s⁻¹"
measured_result = 898000


Proceeding to the next binder to report its kon.
(Q) Look up kon: rat10A5 (antibody, V domains shown, SD rat-derived; rat V domains as FR/HVR pieces; also called 1.10A5; Chimeric 1.10A5) VH: QVSLKESGPGILQPSHTLSLTCSFSGFSLTTYGMGVSWIRQPSEKGLEWLASIWWNGNTYYNPSLRSRLTVSKDTSNDQAFLNVTSVDTTDTATYYCAHTGGAVITWFAYWGQGTLVTVSS VL: NIVMTQSPKSMSISIGDRVTMNCKASQSVGKNIAWYQQKTGQSPQLLIYYASNRYTGVPDRFTGGGSGTDFTLTINSVQAEDAAFFYCQHIYNSPYPFGTGTKLEIK
(A) 678000
